# Tested on: Escherichia coli TOP10
# Method description: shrunken log2 fold change of peptide-encoding DNA abundance (4.5 h post-induction vs induction); higher = less antimicrobial activity (less host growth inhibition)
# Study conditions: time post-induction: 4.5 h; library: site-saturation at positions 5, 18, 19, 20
Given measured shrunken log2 fold change, output t if it is greater than or equal to -0.02 and f if not.

| Residue codes | Tested target | Label |
| --- | --- | --- |
| RRIRFRPPRLPRPRPRPFWRPRP | Escherichia coli TOP10 | t |
| RRIRYRPPRLPRPRPRPNNRPRP | Escherichia coli TOP10 | t |
| RRIRGRPPRLPRPRPRPLYMPRP | Escherichia coli TOP10 | t |

Given the entry `RRIRIRPPRLPRPRPRPGIRPRP` , answer whether its shrunken log2 fold change meets or surpasses -0.02.
f

Is shrunken log2 fold change at least -0.02? Consider `RRIRDRPPRLPRPRPRPVDAPRP`
f

Can `RRIRCRPPRLPRPRPRPWPNPRP` be said to have shrunken log2 fold change at or above -0.02?
f

Dear colleague, could you confirm whether `RRIRHRPPRLPRPRPRPATYPRP` has shrunken log2 fold change at or above -0.02?
f

Textbook exercise: given the entry `RRIRCRPPRLPRPRPRPMEAPRP` , state whether its shrunken log2 fold change is greater than or equal to -0.02.
f

----------
Quick reference: shrunken log2 fold change of the listed items.
# Tested on: Escherichia coli TOP10;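 further: peptides expressed intracellularly from a pBAD plasmid library in pooled LB shake-flask culture, induced with 0.3% L-arabinose, DNA abundance read by NGS, three biological replicates, DESeq2 with apeglm shrinkage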
# Method description: shrunken log2 fold change of peptide-encoding DNA abundance (4.5 h post-induction vs induction); higher = less antimicrobial activity (less host growth inhibition)
# Study conditions: time post-induction: 4.5 h; library: site-saturation at positions 5, 18, 19, 20
Lab note: write the figure by itself, no unit.

| Residue codes | Tested target | shrunken log2 fold change |
| --- | --- | --- |
| RRIRYRPPRLPRPRPRPTYPPRP | Escherichia coli TOP10 | 0.105 |
| RRIRFRPPRLPRPRPRPRCWPRP | Escherichia coli TOP10 | 0.309 |
| RRIRIRPPRLPRPRPRPITIPRP | Escherichia coli TOP10 | -0.436 |
| RRIRWRPPRLPRPRPRPLNYPRP | Escherichia coli TOP10 | -0.546 |
| RRIRCRPPRLPRPRPRPDECPRP | Escherichia coli TOP10 | -0.00243 |
| RRIRQRPPRLPRPRPRPSNKPRP | Escherichia coli TOP10 | -0.513 |
| RRIRRRPPRLPRPRPRPGMRPRP | Escherichia coli TOP10 | 0.792 |
| RRIRRRPPRLPRPRPRPYNDPRP | Escherichia coli TOP10 | -0.176 |
| RRIRTRPPRLPRPRPRPRMGPRP | Escherichia coli TOP10 | 0.108 |
| RRIRYRPPRLPRPRPRPNMDPRP | Escherichia coli TOP10 | -1.3 |

Entry `RRIRSRPPRLPRPRPRPFNNPRP` has what shrunken log2 fold change?
-0.458

What does the record list as shrunken log2 fold change for `RRIRARPPRLPRPRPRPLPMPRP` ?
0.306

What does the data say about its shrunken log2 fold change? Entry: `RRIRNRPPRLPRPRPRPAMMPRP`
0.0394

What does the record list as shrunken log2 fold change for `RRIRARPPRLPRPRPRPFFSPRP` ?
-0.0124

What value of shrunken log2 fold change has been recorded for this entry: `RRIRVRPPRLPRPRPRPTNGPRP`
0.239
